# Test system: RXF 393
# assay-method-text: NCI tumour cell line growth inhibition, 48 h
Active and inactive are the calls of the source. No stated cut-off is given here; in the data, active = GI50 up to about 1.1 µM and inactive = higher.
Measured GI50, listed per entry for reference.
property-label: GI50

>>> observed_result("O=C(O)c1cc(NCc2cc(O)ccc2O)ccc1O")
"> 100 µM (inactive)"
>>> observed_result("COC(=O)CC(=O)OC")
"> 100 µM (inactive)"
>>> observed_result("C(=N\\NC1=NCCN1)/c1cccc2cc3ccncc3nc12")
"2.77 µM (inactive)"
>>> observed_result("CCOc1ccc(NC(=O)C2=C(C)NC(C)=C(C(=O)Nc3ccc(OCC)cc3)C2c2ccc([N+](=O)[O-])cc2)cc1")
"14 µM (inactive)"
>>> observed_result("CC(=O)Oc1ccc2cc(Oc3ccccc3)c(=O)oc2c1")
"> 100 µM (inactive)"
>>> observed_result("COc1ncnc2c1cnn2Cc1cn(CCCCO)nn1")
"> 100 µM (inactive)"
>>> observed_result("CCOC(=O)c1[nH]c2nc(SC)nc(NC)c2c1N")
"> 100 µM (inactive)"
>>> observed_result("Cc1ccc(C2NC(=N)NC3=C2CCOc2c3ccc3ccccc23)cc1 (centres undefined)")
"31.8 µM (inactive)"
>>> observed_result("O=C1CSC(=S)N1c1ccco1")
"> 100 µM (inactive)"
>>> observed_result("CC(C)NC(=O)OCc1c(CO)c2c(n1C)-c1ccccc1CC2")
"23.5 µM (inactive)"
>>> observed_result("COc1ccc2c(c1)Oc1cc(O)ccc1[C@@H]2c1ccccc1C(=O)NC(C)c1ccccc1 (some centres undefined)")
"13.1 µM (inactive)"
>>> observed_result("CN(C)C1(N(C)C)Oc2c(c(=O)n(C)c(=O)n2C)C(c2ccc(Br)cc2)C1(F)F (centres undefined)")
"> 100 µM (inactive)"
>>> observed_result("O=C(O)c1ccn(-c2cccc(-n3ccc(C(=O)O)n3)n2)n1")
"> 100 µM (inactive)"
>>> observed_result("Cc1ccc(S(=O)(=O)N/N=C2\\CCCCC23CCC(=O)NC3)cc1 (centres undefined)")
"> 100 µM (inactive)"

---

Measured GI50, listed per entry for reference.
# Test system: OVCAR-5
# assay-method-text: NCI tumour cell line growth inhibition, 48 h
Where a name gives a salt, the structure may show the parent alone. Active and inactive are the calls of the source. Cut-off read from the data, not from the text of the source: active = GI50 up to about 1.1 µM and inactive = higher.
property-label: GI50

>>> observed_result("CNC(=O)O/N=C1\\N(C)CN(c2ccccc2)C12CCN(CCCC(=O)c1ccc(F)cc1)CC2")
"58.2 µM (inactive)"
>>> observed_result("NC(=S)N1N=C2c3ccccc3CC[C@@H]2[C@@H]1c1ccccc1")
"24.3 µM (inactive)"
>>> observed_result("CC1(C)C(=O)/C=C\\C(=O)C(C)(C)C(=O)/C=C\\C(=O)C(C)(C)C2=CC=C(O2)C(C)(C)C(=O)/C=C\\C1=O")
"20.8 µM (inactive)"
>>> observed_result("CCc1ccc2c(c1)/C(=C1/Nc3ccccc3/C1=N/O)C(=O)N2")
"18.6 µM (inactive)"
>>> observed_result("CNC(=O)CN(CC(N)=O)C(N)=O")
"> 100 µM (inactive)"
>>> observed_result("C=CCNC(=O)NCCCCC(NC(C)=O)C(=O)NCc1ccccc1 (centres undefined)")
"> 100 µM (inactive)"
>>> observed_result("CC/C=C/C(/C=C/C[C@]1(CC)C[C@H](CC)[C@H](CC(=O)O)OO1)CC (some centres undefined)")
"2.34 µM (inactive)"
>>> observed_result("N[C@@H](Cc1ccc(N(CCCl)CCCl)cc1)C(=O)O [MELPHALAN HYDROCHLORIDE]")
"47.4 µM (inactive)"
>>> observed_result("O=[N+]([O-])c1ccc(-c2nnc(C34CC5CC(CC(C5)C3)C4)o2)cc1")
"> 100 µM (inactive)"
>>> observed_result("CCOC(=O)C12CN(C34CC5CC(CC(C5)C3)C4)CC(C(=O)OCC)(C1=O)C(c1ccccc1)OC2c1ccccc1 (centres undefined)")
"> 100 µM (inactive)"
>>> observed_result("CC1=NN(C(=O)CC(=O)Nc2ccccc2)C(=O)C1/N=N/c1ccc(C(=O)O)cc1 (centres undefined)")
"> 100 µM (inactive)"
>>> observed_result("Clc1c2nc3ccccc3c-2[nH]c2ccccc12")
"> 100 µM (inactive)"
>>> observed_result("N#CC(C(=O)CCC(=O)Nc1ccc(Cl)c(Cl)c1)c1ccc(Cl)cc1 (centres undefined)")
"23.9 µM (inactive)"
>>> observed_result("CCOC(=O)c1[nH]c2c(OC)n[n+]([O-])cc2c1[N+](=O)[O-]")
"19.6 µM (inactive)"
